- TARGET OR TEST SYSTEM: T1, VPAC2 receptor (UniProt P41587 24-438, limits assumed)
- T1 sequence (looked up): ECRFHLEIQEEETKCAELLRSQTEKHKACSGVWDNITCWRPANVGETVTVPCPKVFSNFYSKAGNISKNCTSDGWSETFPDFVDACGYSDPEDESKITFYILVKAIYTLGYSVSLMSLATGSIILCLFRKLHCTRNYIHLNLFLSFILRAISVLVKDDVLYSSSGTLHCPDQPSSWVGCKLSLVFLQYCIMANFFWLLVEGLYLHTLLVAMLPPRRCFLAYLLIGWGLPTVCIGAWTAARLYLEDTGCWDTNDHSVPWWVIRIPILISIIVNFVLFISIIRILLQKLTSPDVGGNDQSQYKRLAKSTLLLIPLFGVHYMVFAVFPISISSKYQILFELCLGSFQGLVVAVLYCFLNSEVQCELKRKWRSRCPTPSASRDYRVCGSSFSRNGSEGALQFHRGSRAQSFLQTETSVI
- TEST SUMMARY: cell-based or functional assay
Primed or numbered codes have the meaning given here. Where no end group is shown, it is not given here. [ ]: non-standard residue; d: D form. APC″ = 3-aminopyrrolidine-4-carboxylic acid (cyclic β-amino acid); ACPC″ = 2-aminocyclopentanecarboxylic acid (x in the sequences); APC = 3-aminopyrrolidine-4-carboxylic acid; ACPC = 2-aminocyclopentanecarboxylic acid; β3hL = CC(C)C[C@H](N)CC(=O)O; β3hK = NCCCC[C@H](N)CC(=O)O; β3hV = CC(C)[C@H](N)CC(=O)O; Aib = CC(C)(N)C(=O)O; βAla = NCCC(=O)O
MEASUREMENT NAME: EC50 vpac2 (Molar), cell-based cAMP assay (nM)

>  <BINDER>
Ac-HSDAVFTENYTKLRKQ[ACPC]AA[APC]KYL[ACPC]DL[β3hK]KGGT (not fully specified (C-terminus); printed as Ac-HSDAVFTENYTKLRKQxAAzKYLxDLkKGGT) [LBT-V203]

>  <UOM>
nM

>  <REPORTED VALUE>
0.18

$$$$
>  <BINDER>
Ac-HSDAVFTENYTKLRKQ[ACPC″]AAK[APC″]YL[ACPC″]DLK[β3hK]GGT (not fully specified (C-terminus); printed as Ac-HSDAVFTENYTKLRKQxAAKzYLxDLKkGGT) [LBT-V220]

>  <UOM>
nM

>  <REPORTED VALUE>
0.422

$$$$
>  <BINDER>
Ac-H[ACPC]DA[β3hV]FTENYTKLRKQ[β3hL]AA[APC]KY[ACPC]NDL[β3hK]KG[βAla]T (not fully specified (C-terminus); printed as Ac-HxDAvFTENYTKLRKQlAAzKYxNDLkKGgT) [LBT-V211]

>  <UOM>
nM

>  <REPORTED VALUE>
1.26

$$$$
>  <BINDER>
Ac-H[Aib]DAVFTENYTKLRKQLAA[APC]KY[ACPC]NDL[β3hK]KG[βAla]T (not fully specified (C-terminus); printed as Ac-HBDAVFTENYTKLRKQLAAzKYxNDLkKGgT) [LBT-V204]

>  <UOM>
nM

>  <REPORTED VALUE>
0.529

$$$$
